Let's look at some compounds and their measured Imax (inhibition of [^35S]TBPS binding).
Tested on: GABAA receptor complex (GRC)
EXPERIMENT_NOTES: [35S]TBPS binding assay (In Vitro Binding Assay 1)
SETUP_CONDITIONS: rat cortex P2 homogenate; 2 nM [35S]TBPS; 90 min at 25° C.
Numeric answer only, unit % assumed.

Example results:
- CCOC(=O)C(=CNc1ccc(C#N)cc1)C(=O)c1ccccc1Cl: 100
- C#Cc1ccc(NC=C(C(=O)NCCC)C(=O)c2ccccc2C)cc1: 95
- CCOC(=O)C(=CNc1ccc(F)cc1)C(=O)c1cccc2ccccc12: 81
- C#Cc1ccc(NC=C(C(=O)OCC)C(=O)c2ccccc2Cl)cc1: 95
- CCCNC(=O)C(=CNc1ccc(C)cc1)C(=O)c1ccccc1C: 100
- CCOC(=O)C(=CNc1ccccc1Cl)C(=O)c1ccccc1Cl: 100

Q) # input compound: `CCOC(=O)C(=CNc1ccc(I)cc1)C(=O)c1ccccc1Cl` ; wanted: its Imax (inhibition of [^35S]TBPS binding)
A) 86

* * *

log10 of IC50 reference
TARGET_OR_SYSTEM: GABAA receptor complex (GRC)
EXPERIMENT_NOTES: [35S]TBPS binding assay (In Vitro Binding Assay 1)
SETUP_CONDITIONS: rat cortex P2 homogenate; 2 nM [35S]TBPS; 90 min at 25° C.
# log10 transformed; quantity=IC50; unit=nM

Please review the entries below; each comes with its answer.
- CCCNC(=O)C(=CNc1ccc(C)cc1)C(=O)c1ccccc1C: 2.00
- C#Cc1ccc(NC=C(C(=O)NCCC)C(=O)c2ccccc2C)cc1: 1.30
- CCOC(=O)C(=CNc1ccccc1Cl)C(=O)c1ccccc1Cl: 2.62
- C#Cc1ccc(NC=C(C(=O)OCC)C(=O)c2ccccc2Cl)cc1: 1.00
- CCOC(=O)C(=CNc1ccc(F)cc1)C(=O)c1cccc2ccccc12: 2.30
- CCOC(=O)C(=CNc1ccc(C#N)cc1)C(=O)c1ccccc1Cl: 1.78

Q) Please report the recorded log10 of IC50 for `CCOC(=O)C(=CNc1ccc(I)cc1)C(=O)c1ccccc1Cl` .
A) 1.30
